Target: human 15-PGDH (Homo sapiens)
Construct: comprising residues 3–256 of the human HPGD gene (GenBank identifier: 1203982); His6 (GHHHHHH, behind the TEV site) (C, cleaved yes); made in house; host or cells: E. coli BL21(DE3)-R3
Sequence (P15428 3-256): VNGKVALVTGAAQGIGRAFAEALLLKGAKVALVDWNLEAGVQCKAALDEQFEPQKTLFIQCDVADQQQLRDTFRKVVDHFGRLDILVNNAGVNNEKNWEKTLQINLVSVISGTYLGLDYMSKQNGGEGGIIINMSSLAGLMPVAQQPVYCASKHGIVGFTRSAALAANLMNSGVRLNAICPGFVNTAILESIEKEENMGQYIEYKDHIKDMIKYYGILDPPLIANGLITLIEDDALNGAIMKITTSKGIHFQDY
Test: qHTS and 24-point re-test: fluorescence assay of NAD+ reduction to NADH on PGE2 oxidation (PubChem AID 894)
Type: biochemical
Conditions: potency in 24-point titrations on re-test; 20 nM 15-PGDH, 1 mM NAD+, 30 µM PGE2, pH 8.0; read-out: qHTS IC50
measurement type: pIC50
Quick note: pIC50 means taking -log10 of the concentration in moles per liter.

Examples with their reported pIC50 follow.
{"molecule": "CCCC(C(=O)O)C(C)(C)O (stereo not shown)", "pIC50": 6.55}
{"molecule": "COc1ccc2ccccc2c1C=C1N=C(c2ccc(C)c(C)c2)OC1=O", "pIC50": 6.15}
{"molecule": "O=C(COc1ccc(F)cc1Cl)Nc1cccc(C(=O)NC2CC2)c1", "pIC50": 6.35}

Pending molecule:
Lab note: measured pIC50 of CN(CCc1ccccn1)CC(=O)Nc1ccc(OC(F)(F)F)cc1 was 5.60

This collection of values is drawn from paper PMC2970562.
